biological target: Recombinant HRV-1A 3C protease (Human rhinovirus 1A); construct: HRV-1A 3C protease was produced in E. Coli [BL21(DE3)pLysS] containing the protease gene; test: HRV 3C Protease Inhibition Assay - HPLC Method; conditions: Km value of 1.9 mM, overnight incubation
Sequence (P23008 1515-1697): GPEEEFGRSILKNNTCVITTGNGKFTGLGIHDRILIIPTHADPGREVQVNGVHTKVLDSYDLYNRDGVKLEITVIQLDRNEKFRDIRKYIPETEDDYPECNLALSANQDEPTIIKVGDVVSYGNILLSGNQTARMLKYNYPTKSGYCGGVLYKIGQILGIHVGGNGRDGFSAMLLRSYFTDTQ
assayMetric: log10(Ki) (log10 of the value in µM)
Hi team, quick reminder: these entries are log10 of Ki (µM).

A selection of reference data follows.
INSERT INTO assay_data (compound, assaymetric, numericvalue) VALUES
  ('CCCCCC(=O)c1c(O)c(Cl)c(O)c(Cl)c1OC', 'log10(Ki)', 2.59),
  ('CCCCCC(=O)c1c(O)c(Cl)c(OC)c(Cl)c1O', 'log10(Ki)', 2.66),
  ('O=C1C=CC(=O)c2c(O)cccc21 [Compound 3, Juglone, reference compound]', 'log10(Ki)', 2.80),
  ('COc1ccc(C(=O)c2ccccc2O)c(O)c1 [Compound 1, Dioxybenzone, reference compound]', 'log10(Ki)', 3.67),
  ('COc1cc(O)c(Cl)c(O)c1C(C)=O', 'log10(Ki)', 3.48);

Task: // returns reported log10(Ki) for input `CCCCCC(=O)c1c(O)c(Cl)c(O)c(Cl)c1O`
Output: 2.66

// provenance: patent US6888033B1
